Reference source: ChEMBL document CHEMBL1201862

- Target entity: Ataxin-2 (Homo sapiens)
- Test protocol: qHTS for Inhibitors of ATXN expression.
- Type: functional
In all, about 400,000 compounds went through this assay and about 2,100 (0.53%) were called active. Not shown: some 14% with an inconclusive outcome. The rule behind the calls is not given here. This excerpt belongs to a sample that is enriched for actives.
Select the matching outcome among yes (1) = active, no (0) = inactive

These solved cases illustrate the format of a correct answer.
* COc1ccc(COc2cc(-c3cccc(OC)c3)nc3ccc(N)cc23)cc1 | no (0)
* CCN(CC)c1ccc2ccc(=O)oc2c1 | no (0)
* c1ccc(C(c2cccs2)c2c[nH]c3ccccc23)cc1 (stereo not drawn) | yes (1)

Status in this test for `CC(C)C(=O)Nc1ccc(S(=O)(=O)Nc2nccc(/C=C/c3ccccc3)n2)cc1` ?
no (0)

Status in this test for `COc1cccc2sc(N(CCCN(C)C)C(=O)C(c3ccccc3)c3ccccc3)nc12` ?
yes (1)

Status in this test for `COc1cccc(C(=O)/C=C/c2ccc(OCC#N)c(OC)c2)c1` ?
yes (1)
